Test system: human IgG antibody
measurement_protocol: SPR evaluation of antibody binding properties of ligand immobilized on CM5 sensor chip
test_settings: SPR, human IgG antibody, 25° C., HEPES buffer, fitting with BIAevaluation4.1
Experimental: The association rate Kon [nM/s] and the dissociation rate Koff [l/s ] of an antibody were calculated from the binding reaction curve, and also the dissociation constant Kd [nM] in the binding reaction of polypeptide 1 with a human IgG antibody was calculated.
value_kind: dissociation rate Koff (s⁻¹)

* H-EQQNAFYEILHL-OH [Example 4] | 0.00013
* H-EAQQNAFY-OH [Example 16] | 0.00019
* H-EAQQSAFY-OH [Example 14] | 0.00014
* H-DQSAFY-OH [Example 18, DQSAFY] | 0.00019
* H-EQQNAFY-OH [Example 1, EQQNAFY] | 0.00017
* H-EGQNAFY-OH [Example 5, EGQNAFY] | 0.0002
* H-EQQSAFY-OH [Example 10, EQQSAFY] | 0.00015
* H-EQQNAFY-NH2 [Example 19, EQQNAFY-NH2] | 0.00015
* H-KEQQNAFY-OH [Example 2] | 0.00013
* H-EQQNAFYEILH-OH [Example 3] | 0.00017
* H-QQNAFYEI-OH [Comparative Example 4, reference compound] | 0.00024
* Ac-EQQNAFYK-OH [Example 20] | 0.00014
* H-EQSAFY-OH [Example 15, EQSAFY] | 0.00014
* H-DQQSAFYEILH-OH [Example 13] | 0.00015
* H-DQQSAFY-OH [Example 12, DQQSAFY] | 0.00015
* H-DAQQSAFY-OH [Example 17] | 0.00013
* H-KKKEQQNAFYEILHKKK-OH [Example 7] | 0.00016
* H-KKKEQQNAFYKKK-OH [Example 6] | 0.00015
* Ac-EQQNAFYEILHK-OH [Example 21] | 0.00016
* H-EQQNAFYGGGKGGGEQQNAFY-OH [Example 8] | 0.00015
* Ac-KKKEQQNAFYKKK-OH [Example 22] | 0.00015
* H-EQQSAFYEILH-OH [Example 11] | 0.00018
* H-EQNAFY-OH [Example 9, EQNAFY] | 0.00017
* Ac-KKKEQQNAFYEILHKKK-OH [Example 23] | 0.00016
